# Test system: human red blood cells
# ASSAY_INFO: Hemolytic activity
# Format: cell-based
# MEASUREMENT_CONDITIONS: red cells of human, 18 h, 25
Square brackets hold non-standard residues; d marks the D form. Peptide text beside a SMILES is read from it.
Would you mind telling me the reported Hemolysis percent, 25 μM of each entry?
Could you give me the number in %? Just the number is fine.

*Q* Which Hemolysis percent, 25 μM value is on record for CC(C)C[C@@H](NC(=O)[C@H](N)Cc1c[nH]c2ccccc12)C(=O)N[C@@H](C(=O)N[C@H](Cc1c[nH]c2ccccc12)C(=O)N[C@H](CCCCN)C(=O)N[C@H](Cc1c[nH]c2ccccc12)C(=O)N[C@H](CCCNC(=N)N)C(=O)N[C@H](CCCNC(=N)N)C(=O)N[C@H](CCCNC(=N)N)C(N)=O)C(C)C [WCopW37] (H-[dW][dL][dV][dW][dK][dW][dR][dR][dR]-NH2) ?
*A* 0.13

*Q* // next record CC(C)C[C@@H](NC(=O)[C@H](N)Cc1c[nH]c2ccccc12)C(=O)N[C@H](CC(C)C)C(=O)N[C@H](Cc1c[nH]c2ccccc12)C(=O)N[C@H](C)C(=O)NCC(=O)N[C@H](C)C(=O)N[C@H](CCCNC(=N)N)C(=O)N[C@H](CCCCN)C(=O)N[C@H](CCCCN)C(=O)N[C@H](CCCNC(=N)N)C(N)=O [WCopW21] (H-[dW][dL][dL][dW][dA]G[dA][dR][dK][dK][dR]-NH2)
*A* 0.60

*Q* // next record CC[C@@H](C)[C@@H](NC(=O)[C@@H](Cc1c[nH]c2ccccc12)NC(=O)[C@H](NC(=O)[C@@H](CC(C)C)NC(=O)[C@H](N)Cc1c[nH]c2ccccc12)C(C)C)C(=O)N[C@H](Cc1c[nH]c2ccccc12)C(=O)N[C@H](CCCNC(=N)N)C(=O)N[C@H](CCCNC(=N)N)C(=O)N[C@H](CCC(=O)O)C(=O)N[C@H](CCC(N)=O)C(N)=O [WCopW34] (H-[dW][dL][dV][dW][dI][dW][dR][dR][dE][dQ]-NH2)
*A* -0.18
